target: anti-TNFα antibody-Fab (IgG-Fab derived from anti-TNFα monoclonal antibody, adalimumab) (Homo sapiens, UniProt P01834+P01857); construct: cleaving a humanized monoclonal IgG formulation as a starting material into a Fab fragment and an Fc fragment by papain; purchased; assay: Biacore 3000 surface plasmon resonance, affinity of SpG-β1 mutants for immobilized IgG-Fab; format: binding; settings: Table 2, Example 3; GST-fused one-domain peptide
Where no end group is shown, it is not given here.
Property: KA
# output: number + unit

Substance	KA
K13T/E19I/K28N/F30L/Y33F: GST-fused one-domain SpG-β1 mutant, amino acid SEQ ID NO: 53 (TTYKLILNGKTLTGETTTIAVDAATAENVLKQFANDNGVDGEWTYDDATKTFTVTE; also: GST-fused)	1.44e+06 M⁻¹

Now, please, on to the next substance.
Query: Provide KA value for the following substance: K13S/E19I/F30L: GST-fused one-domain SpG-β1 mutant, amino acid SEQ ID NO: 29 (TTYKLILNGKTLSGETTTIAVDAATAEKVLKQYANDNGVDGEWTYDDATKTFTVTE; also: GST-fused, end not given here)
Reply: 2.23e+06 M⁻¹

###

target: anti-TNFα antibody-Fab (IgG-Fab derived from anti-TNFα monoclonal antibody, adalimumab) (Homo sapiens, UniProt P01834+P01857); construct: cleaving a humanized monoclonal IgG formulation as a starting material into a Fab fragment and an Fc fragment by papain; purchased; experiment: Biacore 3000 surface plasmon resonance, affinity of SpG-β1 mutants for immobilized IgG-Fab; format: binding; details: Table 2, Example 3; GST-fused one-domain peptide
Where no end group is shown, it is not given here.
Property: KA (M⁻¹)
Give just the number in M⁻¹; leave the unit off.

Reference set, count: 5
Substance	Property	Units of measure	Measured number
K13T/E19I/K28N/F30L/D40V: GST-fused one-domain SpG-β1 mutant, amino acid SEQ ID NO: 33 (TTYKLILNGKTLTGETTTIAVDAATAENVLKQYANDNGVVGEWTYDDATKTFTVTE; also: GST-fused)	KA	M⁻¹	1.43e+06
K13T/E19I/K28N/E42K: GST-fused one-domain SpG-β1 mutant, amino acid SEQ ID NO: 39 (TTYKLILNGKTLTGETTTIAVDAATAENVFKQYANDNGVDGKWTYDDATKTFTVTE; also: GST-fused)	KA	M⁻¹	1.1e+06
K13T/T18A/E19V/F30L/Y33F: GST-fused one-domain SpG-β1 mutant, amino acid SEQ ID NO: 67 (TTYKLILNGKTLTGETTAVAVDAATAEKVLKQFANDNGVDGEWTYDDATKTFTVTE; also: GST-fused)	KA	M⁻¹	2.85e+06
K13T/E19I/A23T/F30L/Y33F/D47N/K50R: GST-fused one-domain SpG-β1 mutant, amino acid SEQ ID NO: 45 (TTYKLILNGKTLTGETTTIAVDTATAEKVLKQFANDNGVDGEWTYDNATRTFTVTE; also: GST-fused)	KA	M⁻¹	2.63e+06
K13T/D22N/A23T/T25S/F30L/A48T: GST-fused one-domain SpG-β1 mutant, amino acid SEQ ID NO: 73 (TTYKLILNGKTLTGETTTEAVNTASAEKVLKQYANDNGVDGEWTYDDTTKTFTVTE; also: GST-fused)	KA	M⁻¹	1.06e+06

Okay, now this substance:
Query: Give the reported value of KA for this record: K13T/E19I/K28I/F30L/N35F: GST-fused one-domain SpG-β1 mutant, amino acid SEQ ID NO: 57 (TTYKLILNGKTLTGETTTIAVDAATAEIVLKQYAFDNGVDGEWTYDDATKTFTVTE; also: GST-fused)
Reply: 1.4e+06
